system: COLO 205 colon; experiment: NCI-60 one-dose screen, 48 h; conditions: 10 µM unless noted
About 83,000 compounds went through this panel and 20% of them were active in at least one assay; those are over-represented in the sample as a whole. Activity calls are given as the source filed them. The calls were made as follows: active = growth percent below 10; inactive = the rest.
A correct response names exactly one class from active, inactive

Cc1nc2ccc(Nc3nc(Cl)nc(N4CCOCC4)n3)cc2n1Cc1ccccc1 : inactive
COc1ccc(C2C3CCc4ccccc4C3=NN2C(=O)c2cc(OC)c(OC)c(OC)c2)cc1O (stereo not given) : inactive
CCN(C)CCCOc1ccc(/C(=C(\C)Cc2cccc(OC)c2)c2ccc(OC(C)=O)cc2)cc1 : inactive
O=C1/C(=C\c2cccn2C(=O)c2ccccc2)c2ccccc2N1c1c(Cl)cccc1Cl : inactive
Oc1ccc(-c2cnc(-c3ccccc3)[nH]2)c(O)c1 : inactive

Request: Would you mind telling me which call this test gave SCc1ccc(CS)cc1 ?
Result: inactive

Request: Each molecule tested received a call. Report the one for O=C1/C(=C\c2cccn2Cc2ccc(F)cc2)c2ccccc2N1c1c(Cl)cccc1Cl .
Result: inactive

Request: Dear all, I need the recorded test outcome for CCCCNCCC(O)c1cc2ccc(C(F)(F)F)cc2c2cc(C(F)(F)F)ccc12 (stereo not given) , thank you.
Result: active

Request: Call for entry CCCCCCCCCCCCCCCC1=NCC[N+]1(CCO)CCO :
Result: inactive

Request: # lookup: test call for CCC1CCc2nc3sc(C(=O)Nc4cccc(F)c4)c(N)c3cc2C1 (stereo not given)
Result: inactive

---

Recorded growth, one value per entry.
system: SW-620 colon; assay: NCI-60 one-dose screen, 48 h (100 = growth as untreated, 0 = no growth, -100 = all killed); settings: 10 µM unless noted
The panel holds about 83,000 compounds, 20% with a hit somewhere; the sample as a whole holds those more often.
Entry rule: numbers only, all in %.

C[C@@H](C[C@H](CC1CC1)c1ccccc1)c1ccc2ccccc2c1 : 93.6
O=C(NNC(=S)Nc1ccccc1)c1ccc(Nc2ncnc3c2cnn3-c2cccc(Br)c2)cc1 : 104
O=C(Nc1ccc(Cl)c(C(F)(F)F)c1)c1ccc(Nc2ccc(Cl)nn2)cc1 : 96.8

Request: Report measured growth; entry is O=C1C(Cl)=C(N/N=c2/[nH][nH]/c(=N/NC3=C(Cl)C(=O)c4ccccc4C3=O)c3ccccc23)C(=O)c2ccccc21
Result: 60.6

Request: Specify growth for COc1cc2c(cc1OCCCOc1cc3c(cc1OC)C(=O)N1CCC[C@H]1C=N3)C=CC(C)(C)O2 and stop.
Result: 18.1

Request: Give the reported growth for this compound. COc1cc(NC(C)CCCN)c2ncccc2c1Oc1ccc(Cl)cc1 (stereo not given)
Result: 73.5

Request: Assign growth to the following record: CCOP(=O)(O)OP(=O)(O)OCC
Result: 103

Request: Provide growth value for the following compound: COc1ccc(NC(=O)C2c3ccccc3C(=O)N(CC(C)C)C2c2cccs2)cc1 (stereo not given)
Result: 92

Request: Provide measured growth value, entry: O=C(/C=C/c1ccccc1)n1c(-c2ccccc2)nc2ccccc21
Result: 102

Request: Item O=[N+]([O-])c1cccc([I+]c2ccccc2)c1 : provide growth
Result: 40

---

system: SNB-19 CNS; experiment: NCI-60 one-dose screen, 48 h; details: 10 µM unless noted
This is part of a sample that, as a whole, favours compounds with a hit. Of some 83,000 tested, about 20% had one in any assay. Active and inactive are the calls of the source. How the source made its calls: active means growth percent below 10; inactive means the rest.
Pick one: active, inactive

O=C(O)Cn1ccc2ccccc21 : inactive
COc1cc(C)c2c(=O)c3c(oc2c1)C(=O)c1c(O)c(OC)cc(O)c1C3=O : inactive
Nc1cc2nc3ccccc3oc-2cc1=O : inactive
Cc1cc(C#Cc2ccccc2)ccc1-n1c(/C=C/c2ccc(F)cc2)nc2ccccc2c1=O : inactive
C#CC[C@@H]1C[C@]2(C)[C@H]3CC[C@@H]4[C@H]5C(C(=C)C)CC[C@]5(C(=O)NCCCCN)CC[C@@]4(C)[C@]3(C)CC[C@H]2C(C)(C)[C@H]1OC(C)=O (stereo not given in full) : active

Request: Call for entry COc1ccc(/C=C/C(=O)c2ccc(NC(=O)CSc3nnc(-c4ccc(OC)cc4)n3-c3ccccc3)cc2)cc1 :
Result: inactive

Request: Name the outcome recorded for C=C(C)[C@@H]1CC[C@]2(C)[C@H](CC=C3[C@@H]4C[C@](C)(C(=O)N5CCN(C)CC5)CC[C@]4(C)CC[C@]32C)[C@@]1(C)CCC#N in the assay.
Result: inactive

Request: What call does the record list for CCC1CCc2nc3sc(C(=O)Nc4cccc(F)c4)c(N)c3cc2C1 (stereo not given) ?
Result: inactive

Request: Name the outcome recorded for Fc1ccc2c(CN3CCO[C@H](COc4cccc(Cl)c4)C3)c[nH]c2c1 in the assay.
Result: inactive

Request: Record lookup: outcome of this test for FC(F)(F)C1=NNC(c2ccc3ccccc3c2)=NN1 ?
Result: inactive

---

test system: PC-3 prostate; assay: NCI-60 one-dose screen, 48 h (100 = growth as untreated, 0 = no growth, -100 = all killed); conditions: 10 µM unless noted
About 83,000 compounds went through this panel and 20% of them were active in at least one assay; those are over-represented in the sample as a whole.
Group membership follows growth per the scheme low bracket: < 30%; middle bracket: ≥ 30% and < 90%; high bracket: ≥ 90%

Study these solved cases before continuing.
C/C=C(\C)C(C(=O)NC1CCCCC1)N(C(=O)C1CCc2cc(F)ccc2O1)c1ccc([N+](=O)[O-])cc1 (stereo unspecified) : middle bracket
COc1ccc(-c2n[nH]nc2-c2cc(OC)c3c(c2)OCO3)cc1 : low bracket
CCOC(=O)c1c(NC(=O)c2ccccc2)sc2c(O)c(CN(CC)CC)ccc12 : low bracket
Cc1c(-c2ccc(-c3ccccc3F)cc2)nc2ccc(F)cc2c1C(=O)O : middle bracket
Cc1ccc(-c2cnc3sc4ccc(Cl)cc4n23)cc1 : middle bracket

Request: Please let me know in which category the item COc1cc2c(cc1OC)C(=O)C(Br)CC2 (stereo unspecified) belongs.
Result: middle bracket

Request: Form: Item = COc1ccc2c(c1)CCCC21C(=O)Nc2c(Cl)cccc21 (stereo unspecified) ; Class = ?
Result: middle bracket

Request: For this compound, which bin applies? CC[C@H](Nc1nc(C)nc(N)c1C#N)c1nc2cccc(NCc3ccc(C(=O)NO)cc3)c2c(=O)n1-c1ccccc1
Result: low bracket

Request: Class label required: Cc1n(Cc2ccc3ccccc3n2)cc[n+]1Cc1ccc2ccccc2c1
Result: low bracket

Request: Exercise: read the entry Cc1nc2n[nH]c(N)c2nc1C and state which class it falls under.
Result: high bracket

Request: Band for the recorded growth of CCOC(=O)C(=CNc1ccccc1Cl)C(=O)OCC ?
Result: high bracket

Request: # bin label for COC(=O)C1(C)COP(=O)(NC23CC4CC(CC(C4)C2)C3)OC1 (stereo unspecified)
Result: high bracket

---

system: ACHN renal; test: NCI-60 one-dose screen, 48 h; details: 10 µM unless noted
About 83,000 compounds went through this panel and 20% of them were active in at least one assay; those are over-represented in the sample as a whole. Active and inactive are the calls of the source. The calls were made as follows: active = growth percent below 10; inactive = the rest.
Your response should consist of one outcome taken from active, inactive

Sample answers from the record:
NC(N)=N/N=C\c1ccc(OCc2ccccc2)cc1 : inactive
COc1ccc(Nc2ncnc3c2sc2nc(C)cc(C)c23)cc1 : inactive
CC(C)COC(=O)NC(C)(C)C : inactive
O=C(C=P(c1ccccc1)(c1ccccc1)c1ccccc1)CCl : active
O=C(O)c1cn(-c2ccccc2)nc1-c1ccc(O)cc1 : inactive
CCc1ccc(Nc2ncnc3c2cnn3-c2cccc(Br)c2)cc1 : inactive
CCCCN(CCCC)CCC(O)c1cc2ccc(C(F)(F)F)cc2c2cc(C(F)(F)F)ccc12 (configuration not stated) : inactive
Nc1nonc1-c1nc2ccccc2n1Cc1ccc(F)cc1 : inactive
Cc1ccc(Nc2nc(NCCO)c3ccccc3n2)cc1C : inactive
COc1ccc(C2=CC(c3ccc(OC)cc3Br)N3C=CSC3=N2)cc1 (configuration not stated) : inactive

Request: Could you kindly confirm the outcome this assay logged for CCCC(CCC)NCC(O)c1cc(-c2ccc(C(F)(F)F)cc2)nc(C(F)(F)F)c1 (configuration not stated) ?
Result: active

Request: For this compound, state the assay outcome: COC(=O)/C=C/c1cc(OC(C)=O)c2c(c1)[C@@H](C(=O)OC)[C@H](c1ccc(OC(C)=O)c(OC(C)=O)c1)O2
Result: inactive

---

Recorded growth for the following compounds
test system: CCRF-CEM leukemia; assay: NCI-60 one-dose screen, 48 h (100 = growth as untreated, 0 = no growth, -100 = all killed); settings: 10 µM unless noted
The panel holds about 83,000 compounds, 20% with a hit somewhere; the sample as a whole holds those more often.
API: value field is a number in %; no unit string.

CCC(C)C1NC(=O)c2nc(oc2-c2ccccc2)-c2csc(n2)-c2csc(n2)-c2nc(oc2C)-c2coc(n2)CNC(=O)C(C(C)CC)NC1=O (stereo not given) : -66.4

Request: Read the entry Cc1ccc(Nc2nc(NCCO)c3ccccc3n2)cc1C and write its reported growth.
Result: 8.3

Request: Name the recorded growth of the item COCCn1c(Nc2ccc(C(=O)NO)cc2)nc2ccccc21 in your answer.
Result: 48.5
